experiment: Determination of bio-accumulation: urinary clearance pharmacokinetic study in rats; conditions: renal elimination half-life, 73 micro Moles per kg, oral gavage, urine by fluorine NMR, exponential curve fitting
Consider the following compounds and their measured T½ readings.
Reply with just the number (in h).

Consider the worked cases shown below.
COMPOUND	MEASUREMENT_UNIT	MEASURED_NUMBER
N.O=C(O)C(F)(F)OC(F)(F)OC(F)(F)OC(F)(F)F [Compound 3, CF3—OCF2—OCF2—OCF2—COONH4]	h	12
N.O=C(O)C(F)(F)C(F)(F)OC(F)(F)F [Compound 6, CF3—O—CF2—CF2—COONH4]	h	11
N.O=C(O)C(F)(F)C(F)OC(F)(F)C(F)(F)C(F)(F)F (stereo not shown) [Compound 13, C3F7—O—CFH—CF2COONH4]	h	11
N.O=C(O)C(F)(F)C(F)(F)C(F)(F)OC(F)C(F)(F)F (stereo not shown) [Compound 15, CF3—CFH—O—(CF2)3—COONH4]	h	8
N.O=C(O)C(F)(F)C(F)OC(F)(F)C(F)(F)C(F)(F)OC(F)(F)F (stereo not shown) [Compound 11, CF3—O—CF2—CF2—CF2—O—CHF—CF2—COONH4]	h	12

Kindly review the next compound as well.
Value of measured T½ for the entry N.O=C(O)C(F)(F)OC(F)(F)C(F)(OC(F)(F)C(F)(F)C(F)(F)F)C(F)(F)F (stereo not shown) [Compound C-3, CF3CF2CF2OCF(CF3)CF2OCF2COONH4, reference compound] : 95
